# System: SN12C renal
# protocol: NCI tumour cell line growth inhibition, 48 h
quantityKind: TGI

INSERT INTO assay_data (compound, value) VALUES
  ('O=C(c1ccccc1)C(c1ccccc1)C1(O)C(=O)Nc2c(Cl)ccc(Cl)c21 (stereo not given)', '31.8 µM'),
  ('CC12CCC(=O)N1c1cnccc1N2 (stereo not given)', '> 100 µM'),
  ('CC(C)(C)OC/C=C(\Br)CO', '> 100 µM');

Dear colleague, could you send me TGI for each of the items below? Thanks.
1. CCCCCCCC/C=C(\Br)C(O)C(Br)Br (stereo not given)
2. CC(=O)O[C@H]1CC[C@]2(C)[C@H]3CC=C4[C@@H]5CC(C)(C)CC[C@]5(C(=O)NCCNCCNCCN)CC[C@@]4(C)[C@]3(C)CC[C@H]2C1(C)C

Reply:
36.6 µM
3.37 µM

Ref: PubChem BioAssay (NCI)
